These data points were gathered from patent US20210070872A1.

The entries below are paired with their reported koff.
- target desc: T1, biotinylated GITR (human, UniProt Q9Y5U5 26-161, limits assumed, biotinylated (sites not given))
- T1 construct: also called GITR-bio; Biotin-GITR
- T1 sequence: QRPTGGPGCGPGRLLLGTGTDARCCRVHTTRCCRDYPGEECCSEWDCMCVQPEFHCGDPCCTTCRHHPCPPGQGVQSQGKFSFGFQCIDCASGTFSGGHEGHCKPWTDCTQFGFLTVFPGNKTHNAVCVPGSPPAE
- procedure details: BLI (Octet), biotin-GITR on streptavidin tips, antibody supernatant
Please state the figure in s⁻¹; there is no need to write the unit.

// worked examples, koff included
{"binder": "germline variant antibody 78 (H1917D01 / K1917D01) (antibody, V domains shown, IGHG1/IGKC expression vectors; measured from CHO culture supernatant; also called Antibody ID 78) VH: QVQLVQSGAEVKKPGASVKVSCKGSGYTFTDYAMYWVRQAPGQGLEWIGVIKTYSGGVTYNQKFRDRATMTVDTSISTAYMELSRLRGDDTAVYYCAKSGTVRGFAYWGRGTLVTVSS VL: DIVMTQSPDSLAVSLGERATINCKSSQSLLNSGNQKNYLTWYHQKPGQPPKMLIYWASTRESGVPDRFTGSGSGTDFTLTISSVQAEDVAVYHCQNDYSYPYTFGQGTKLEIK", "experimental result": 0.000327}
{"binder": "germline variant antibody 61 (H1917A02 / K1917A02) (antibody, V domains shown, IGHG1/IGKC expression vectors; measured from CHO culture supernatant; also called Antibody ID 61) VH: QVQLVQSGTEVKKPGASVKVSCKASGYTFTEYAMHWVRQAPGQGLEWMGLIRTYSGGVSYNQKFQERVTMTVDKSISTAYMELSRLRSDDTAVYYCAKSGTVRGFAYWGQGTLVTVSS VL: DIVMTQSPDSLAVSLGERATINCKSSQSLLNSGNQKNYLSWYQQKPGQPPKLLIYWASTRESGVPDRFSGSGSGTDFTLTISSVQAEDVAVYYCQNDYSFPYTFGQGTKLEIK", "experimental result": 0.00141}

# evaluate next
*Q* Please report the recorded koff for germline variant antibody 35 (H1916D05 / K1916D05) (antibody, V domains shown, IGHG1/IGKC expression vectors; measured from CHO culture supernatant; also called Antibody ID 35) VH: QVQLVQSGAEAKKPGASVKVSCKGSGYTFTGYAMYWVRQAPGQGMEWIGVIRTFSGDVTYNQKFRGRVTMTVDTSISTAYMELSRLRSDDTAVYYCAKSGTVRGFAYWGQGTLVTVSS VL: DIVMTQSPDSLAVSLGERATINCKSSQSLLNSGNQKNYLTWYHQKPGQPPKLLIYWASTRESGVPDRFTGSGSGTDFTLTISSVQAEDVAVYYCQNDYSYPYTFGQGTKLEIK .
*A* 0.00024
